The entries below are paired with their reported koff.
target: T1, human PAI-1 captured on immobilized human vitronectin (human, UniProt P04004 20-478); experiment: Biacore, hPAI-1 on vitronectin chip, 1:1 model
T1 construct: non-covalent complex formed on the chip or plate; also called PAI-1/Vn complex; Vn captured hPAI-1
T1 sequence (chain, as listed by the source limits assumed, chain 1 of 2): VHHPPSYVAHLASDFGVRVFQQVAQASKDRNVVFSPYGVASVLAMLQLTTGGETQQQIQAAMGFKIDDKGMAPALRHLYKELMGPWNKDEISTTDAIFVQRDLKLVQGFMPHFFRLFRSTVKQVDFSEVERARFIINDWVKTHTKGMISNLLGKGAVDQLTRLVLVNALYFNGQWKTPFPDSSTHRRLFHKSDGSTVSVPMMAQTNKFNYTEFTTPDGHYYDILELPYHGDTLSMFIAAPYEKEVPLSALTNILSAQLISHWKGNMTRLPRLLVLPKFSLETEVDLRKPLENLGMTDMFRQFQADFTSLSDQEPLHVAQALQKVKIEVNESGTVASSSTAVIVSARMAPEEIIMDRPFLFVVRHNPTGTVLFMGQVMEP
T1 sequence (P04004 20-478 limits assumed, chain 2 of 2): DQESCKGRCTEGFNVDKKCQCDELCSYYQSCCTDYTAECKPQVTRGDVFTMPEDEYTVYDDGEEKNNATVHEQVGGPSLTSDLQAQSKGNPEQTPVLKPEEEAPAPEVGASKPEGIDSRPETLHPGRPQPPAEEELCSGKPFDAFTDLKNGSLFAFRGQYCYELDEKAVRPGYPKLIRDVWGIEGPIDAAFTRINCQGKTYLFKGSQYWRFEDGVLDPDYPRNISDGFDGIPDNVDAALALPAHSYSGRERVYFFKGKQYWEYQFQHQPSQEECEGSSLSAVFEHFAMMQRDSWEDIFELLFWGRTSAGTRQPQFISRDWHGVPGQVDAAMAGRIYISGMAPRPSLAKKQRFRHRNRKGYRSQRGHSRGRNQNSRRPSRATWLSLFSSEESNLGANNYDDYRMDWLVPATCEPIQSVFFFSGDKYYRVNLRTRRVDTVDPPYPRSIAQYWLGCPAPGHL
Give just the number in s⁻¹; leave the unit off.

BINDER	VALUE UNIT	koff
A44-hv11 (antibody, V domains shown, humanized A44, HEK293; compared with a human IgG1 isotype control; constant regions as for A44-hv1; also called A44V11; A44v11) VH: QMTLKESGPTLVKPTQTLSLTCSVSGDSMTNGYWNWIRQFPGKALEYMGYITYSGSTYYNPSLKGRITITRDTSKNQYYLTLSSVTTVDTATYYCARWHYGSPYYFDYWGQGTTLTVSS VL: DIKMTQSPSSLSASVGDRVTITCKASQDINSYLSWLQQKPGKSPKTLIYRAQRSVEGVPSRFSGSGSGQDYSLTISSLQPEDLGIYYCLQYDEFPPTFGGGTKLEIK	s⁻¹	0.000122
A44-hv6 (antibody, V domains shown, humanized A44, HEK293; constant regions as for A44-hv1; also called LC3 x HC3; variant 6) VH: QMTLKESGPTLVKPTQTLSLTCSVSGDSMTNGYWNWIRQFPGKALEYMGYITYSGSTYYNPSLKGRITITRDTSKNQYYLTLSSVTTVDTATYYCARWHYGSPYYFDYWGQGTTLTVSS VL: DIKMTQSPSSLSASVGDRVTITCKASQDINSYLSWLQQKPGKSPKTLIYRANRSVDGVPSRFSGSGSGQDYSLTISSLQPEDLATYYCLQYDEFPPTFGGGTKLEIK	s⁻¹	5.68e-05
A44-hv9 (antibody, V domains shown, humanized A44, HEK293; constant regions as for A44-hv1; also called LC5b x HC5b; variant 9) VH: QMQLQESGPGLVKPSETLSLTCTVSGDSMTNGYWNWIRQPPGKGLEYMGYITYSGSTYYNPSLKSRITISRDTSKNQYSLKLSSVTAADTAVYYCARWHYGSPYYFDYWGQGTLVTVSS VL: DIQMTQSPSSLSASVGDRVTITCKASQDINSYLSWLQQKPGKAPKTLIYRANRSVDGVPSRFSGSGSGQDYTFTISSLQPEDIATYYCLQYDEFPPTFGGGTKVEIK	s⁻¹	0.000103
A44 (antibody, mouse IgG1, V domains shown, mouse IgG1/kappa; also called mA44; A44 parental) VH: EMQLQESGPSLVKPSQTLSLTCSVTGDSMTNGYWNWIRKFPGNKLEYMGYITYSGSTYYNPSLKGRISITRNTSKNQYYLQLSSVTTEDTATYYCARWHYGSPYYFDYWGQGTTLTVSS VL: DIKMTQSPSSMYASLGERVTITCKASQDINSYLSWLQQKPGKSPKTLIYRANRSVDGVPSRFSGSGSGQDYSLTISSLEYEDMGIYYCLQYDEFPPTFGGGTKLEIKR	s⁻¹	0.000229
A44-hv4 (antibody, V domains shown, humanized A44, HEK293; constant regions as for A44-hv1; also called LC1a x HC2b; variant 4) VH: EMTLKESGPTLVKPTQTLSLTCSVTGDSMTQGYWNWIRKFPGKALEYMGYITYSGSTYYNPSLKGRISITRNTSKNQYYLTLSSVTTVDTATYYCARWHYGSPYYFDYWGQGTTLTVSS VL: DIKMTQSPSSLSASVGDRVTITCKASQDINSYLSWLQQKPGKSPKTLIYRANRSVDGVPSRFSGSGSGQDYSLTISSLQPEDLGIYYCLQYDEFPPTFGGGTKLEIK	s⁻¹	8.8e-05

# input for lookup
Give its koff value. Item: A44-hv5 (antibody, V domains shown, humanized A44, HEK293; constant regions as for A44-hv1; also called LC2 x HC2b; variant 5) VH: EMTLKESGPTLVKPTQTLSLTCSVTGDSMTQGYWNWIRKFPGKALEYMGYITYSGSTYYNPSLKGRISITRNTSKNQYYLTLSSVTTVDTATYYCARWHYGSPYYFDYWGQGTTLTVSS VL: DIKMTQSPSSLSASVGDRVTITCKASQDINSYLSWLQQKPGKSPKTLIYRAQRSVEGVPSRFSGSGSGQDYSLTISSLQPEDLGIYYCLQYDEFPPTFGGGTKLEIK
2.76e-05
